Target or system Adenosine receptor A1 (Homo sapiens); metric log10 Ki; compiled from varied reports.
assayEndpoint: log10 Ki (log10 of the value in µM)

                                    compound  assayendpoint  observedresult
 0  Cc1cc(-c2c(-c3cccc(C#N)c3)nn3ccc(NC4CCNCC4)nc23)cc(Cl)n1       log10 Ki           -1.82
 1  Cc1cc(-c2c(-c3cccc(C#N)c3)nn3ccc(N/C(=N\C#N)NC(C)C)nc23)cc(Cl)n1       log10 Ki           -2.00
 2  Cc1cc(-c2c(-c3cccc(C#N)c3)nn3ccc(NCCO)nc23)cc(Cl)n1       log10 Ki           -1.80
 3  Cc1cc(-c2c(-c3cccc(C#N)c3)nn3ccc(N)nc23)cc(C#N)n1       log10 Ki           -1.36
 4  Cc1cc(-c2c(-c3cccc(C#N)c3)nn3ccc(N4CCC5(CC4)CNC(=O)C5)nc23)cc(C)n1       log10 Ki           -0.11
 5  Cc1cc(-c2c(-c3cccc(C#N)c3)nn3ccc(N[C@H]4C[C@H](O)C4)nc23)cc(Cl)n1       log10 Ki           -0.72
 6  Cc1cc(-c2c(-c3cccc(C#N)c3)nn3ccc(C(=O)NC[C@@H](C)O)nc23)cc(Cl)n1       log10 Ki           -0.44
 7     Nc1nc(NCCc2cccnc2)nc2sc(-c3ccco3)nc12       log10 Ki           -2.58
 8  Cc1cc(-c2c(-c3cccc(C#N)c3)nn3ccc(C(=N)NC(C)(C)C)nc23)cc(Cl)n1       log10 Ki            0.26
 9  N#Cc1cccc(-c2nn3ccc(NCc4ccccc4)nc3c2C#N)c1       log10 Ki           -1.08
10  Cc1cc(-c2c(-c3cccc(C#N)c3)nn3ccc(C(=O)N[C@@H]4CN(C)C[C@H]4O)nc23)cc(C)n1       log10 Ki           -0.34
11  Cc1cc(-c2c(-c3cccc(C#N)c3)nn3ccc(C(=O)N[C@H](C)C(C)(C)O)nc23)cc(C)n1       log10 Ki           -0.23
12  Cc1cc(-c2c(-c3cccc(C#N)c3)nn3ccc(C(=O)NC(C)(C)C#N)nc23)cc(Cl)n1       log10 Ki           -0.60
13  Nc1nc(-c2cccc(F)c2)ncc1C(=O)NCc1ncccc1Cl       log10 Ki           -0.40
14  Nc1nc(-c2ccco2)ncc1C(=O)NCc1ccc(C(F)(F)F)cc1       log10 Ki            0.75
15  Cc1cc(-c2c(-c3cccc(C#N)c3)nn3ccc(N)nc23)cc(F)n1       log10 Ki           -2.22
16  Nc1nc(-c2ccco2)ncc1C(=O)NCc1cccc2cccnc12       log10 Ki           -0.15
17      Nc1nc(NCc2ccccn2)nc2sc(-c3ccco3)nc12       log10 Ki           -1.55
18  Cc1cccnc1CNC(=O)c1c(N)nc(-c2ncco2)nc1OCCF       log10 Ki           -0.59
19  Cc1cc(-c2c(-c3cccc(C#N)c3)nn3ccc(C(=O)NCC(C)(C)O)nc23)cc(Cl)n1       log10 Ki           -0.53
20          N#Cc1c(-c2ccco2)nn2ccc(NCCO)nc12       log10 Ki           -0.55
21  CC(=O)N1CCC(Nc2ccn3nc(-c4cccc(C#N)c4)c(-c4cc(C)nc(C)c4)c3n2)CC1       log10 Ki           -0.16
22  CC(O)CCNC(=O)c1c(N)nc(-c2cccc(C#N)c2)nc1OCCF (stereo not drawn)       log10 Ki           -0.20
23  Cc1cc(-c2c(-c3cccc(C#N)c3)nn3ccc(C(=O)NCCC(C)(C)N)nc23)cc(Cl)n1       log10 Ki           -0.84
24    O=C(NCc1ccccc1)c1ccn2nc(-c3ccco3)cc2n1       log10 Ki           -0.44
25  Cc1cc(-c2c(-c3cccc(C#N)c3)nn3ccc(C(=O)NC(C)(C)C)nc23)cc(Cl)n1       log10 Ki           -0.32
26  Cc1cc(-c2c(-c3cccc(C#N)c3)nn3ccc(N4CCN[C@H](C(C)(C)O)C4)nc23)cc(Cl)n1       log10 Ki           -1.09
27  Cc1cc(-c2c(-c3cccc(C#N)c3C)nn3ccc(C(=O)NCC(C)(C)O)nc23)cc(C)n1       log10 Ki           -0.53
28  Cc1cc(-c2c(-c3cccc(C#N)c3)nn3ccc(C(=O)NCC(C)(C)O)nc23)cc(C#N)n1       log10 Ki           -0.24
29  COc1ccccc1CNC(=O)c1cnc(-c2cccc(F)c2)nc1N       log10 Ki           -0.84
30  COc1cc(CNC(=O)c2cnc(-c3ccco3)nc2N)cc(OC)c1       log10 Ki            0.68
31  Cc1ncnc2ccc(-c3ccc(N)nc3-c3ccc(F)cc3)cc12       log10 Ki            0.51
32  Cc1cc(-c2c(-c3cccc(C#N)c3)nn3ccc(NC[C@H]4COCCN4)nc23)cc(Cl)n1       log10 Ki           -0.72

* * *

pKi: −log10 of the molar value.
Literature compilation of pKi measurements on Adenosine receptor A1 (Homo sapiens, UniProt P30542).
assayEndpoint: pKi

>>> print(df.to_string())
                                   compound  observedresult
0   COc1nc(-c2ccco2)nc(N)c1C(=O)NCc1ncccc1C            6.69
1  N#Cc1c(-c2cccc(F)c2)nn2ccc(NCc3ccccc3)nc12            8.70
2  COCC(C)(C#N)NC(=O)c1ccn2nc(-c3cccc(C#N)c3)c(-c3cc(C)nc(Cl)c3)c2n1 (centres unmarked)            7.49
3  Cc1cc(-c2c(-c3cccc(C#N)c3)nn3ccc(C(=O)N[C@H]4C[C@@H](O)C4)nc23)cc(Cl)n1            6.69
4    COc1ccccc1CNc1nc(N)c2nc(-c3ccco3)sc2n1            8.45

* * *

pKi: −log10 of the molar value.
The entries that follow carry pKi values tested on Adenosine receptor A1 (Homo sapiens, UniProt P30542), drawn from several published reports.
assayEndpoint: pKi

>>> print(df.to_string())
                                    compound  inequalitysign  observedresult
 0  Cc1cc(-c2c(-c3cccc(C#N)c3)nn3ccc(C(=O)NCC(C)(C)O)nc23)cc(C(F)(F)F)n1               =            7.33
 1  Cc1cc(-c2c(-c3cccc(C#N)c3)nn3ccc(NCC4CNC(=O)C4)nc23)cc(Cl)n1 (stereo not drawn)               =            7.54
 2  Cc1cc(-c2c(-c3cccc(C#N)c3)nn3ccc(C(=O)NC[C@H](O)CO)nc23)cc(Cl)n1               =            6.37
 3  Cc1cc(-c2c(-c3cccc(C#N)c3)nn3ccc(N[C@H]4CCOC4)nc23)cc(Cl)n1               =            6.17
 4  Cc1cc(-c2c(-c3cccc(C#N)c3)nn3ccc(C(N)=O)nc23)cc(Cl)n1               =            6.52
 5     Nc1nc(-c2ccco2)ncc1C(=O)NCc1cccc(F)c1               =            5.45
 6  Cc1cc(-c2c(-c3cccc(C#N)c3)nn3ccc(C(=O)NCC4(C)CCCNC4)nc23)cc(Cl)n1 (stereo not drawn)               =            7.70
 7  Cc1cc(-c2c(-c3cccc(C#N)c3)nn3ccc(NC(C)CN(C)C)nc23)cc(Cl)n1 (stereo not drawn)               =            6.35
 8  Cc1cc(-c2c(-c3cccc(C#N)c3)nn3ccc(NC(N)=O)nc23)cc(Cl)n1               =            7.24
 9  Cc1cc(-c2c(-c3cccc(C#N)c3)nn3ccc(C(=O)NC45CC(O)(C4)C5)nc23)cc(Cl)n1               =            6.53
10  Cc1cc(-c2c(-c3cccc(C#N)c3)nn3ccc(N[C@@H]4CCNC4)nc23)cc(Cl)n1               =            8.10
11  NC(=O)c1c(-c2ccco2)nn2ccc(NCc3ccccc3)nc12               =            6.84
12  Cc1cc(-c2c(C#N)cc(NC(=O)N3CCOCC3)nc2-c2ccc(F)cc2)cc(Cl)n1               =            5.86
13  CN(C)C1CN(c2ccn3nc(-c4ccco4)c(C(N)=O)c3n2)C1               =            5.87
14           CCCCNc1nc(N)c2nc(-c3ccco3)sc2n1               =            7.39
15  Cc1cc(-c2c(-c3cccc(C#N)c3)nn3ccc(N[C@H]4CCNC4)nc23)cc(Cl)n1               =            6.64
16      Nc1nc(NCCc2ccco2)nc2sc(-c3ccco3)nc12               =            8.28
17      Ic1c(-c2ccco2)nn2ccc(NCc3ccccc3)nc12               =            5.84
18  COCCn1c(=O)n(C2(C)CC2)c(=O)c2c(C)c(CN3CCNC3=O)sc21               <            5.00
19  CCn1nccc1-c1c(-c2cccc(C#N)c2)nn2ccc(N)nc12               =            6.71
20  Cc1cc(-c2c(-c3cccc(C#N)c3)nn3ccc(C(=O)N[C@H]4CNC[C@@H]4O)nc23)cc(Cl)n1               =            6.21
21  COc1cc(-c2c(-c3cccc(C#N)c3)nn3ccc(N)nc23)cc(C)n1               =            6.91
22       Cc1cccnc1CNC(=O)c1nnc(-c2ccco2)nc1N               =            6.50
23  CCn1nccc1-c1c(-c2cccc(C#N)c2)nn2ccc(N3CCN(C)C(CO)C3)nc12 (stereo not drawn)               =            6.74
24  Cc1cc(-c2c(-c3cccc(C#N)c3)nn3ccc(C(=O)N[C@H]4C[C@@](C)(O)C4)nc23)cc(C)n1               =            6.46
25    O=Cc1c(-c2ccco2)nn2ccc(NCc3ccccc3)nc12               =            6.76
26  COCCOc1nc(-c2ccco2)nc(N)c1C(=O)NCc1ncccc1C               =            7.72
27  Cc1cc(-c2c(-c3cccc(C#N)c3C)nn3ccc(C(=O)N[C@H](C)C(C)(C)O)nc23)cc(C)n1               =            6.13
28  Cc1cc(-c2c(-c3cccc(C#N)c3)nn3ccc(N[C@H](C)C(C)(C)O)nc23)cc(Cl)n1               =            6.58
29  Cc1cc(-c2c(-c3cccc(C#N)c3)nn3ccc(C(N)=O)nc23)cc(C)n1               =            6.38
30  Cc1cc(-c2c(-c3cccc(C#N)c3)nn3ccc(C(=O)N[C@@H](C)C(C)(C)O)nc23)cc(C)n1               =            6.97
31  Cc1cccnc1CNC(=O)c1c(N)nc(-c2ccco2)nc1OCC(C)C               =            8.39
32  Cc1cccnc1CNC(=O)c1c(N)nc(-c2ccco2)nc1OC[C@H](C)O               =            8.77
